EXPERIMENT_NOTES: self-splicing fitness, log relative to wild type (ln ratio); higher = more splicing; Tetrahymena group I intron in knt gene, E. coli kanamycin selection, DiMSum; sequences stand for … in CUCUCU…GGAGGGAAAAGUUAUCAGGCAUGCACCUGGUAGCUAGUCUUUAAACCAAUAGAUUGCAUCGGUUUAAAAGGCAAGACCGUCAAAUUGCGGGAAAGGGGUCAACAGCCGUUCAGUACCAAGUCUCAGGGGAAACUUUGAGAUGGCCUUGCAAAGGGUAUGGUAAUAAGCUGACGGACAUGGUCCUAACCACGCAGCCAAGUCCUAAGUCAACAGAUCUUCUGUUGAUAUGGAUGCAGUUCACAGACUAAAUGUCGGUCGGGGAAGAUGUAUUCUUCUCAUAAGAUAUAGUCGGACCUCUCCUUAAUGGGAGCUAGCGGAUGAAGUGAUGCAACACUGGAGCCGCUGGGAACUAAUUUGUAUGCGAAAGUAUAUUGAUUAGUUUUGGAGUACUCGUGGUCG;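 further: selection with 25 µg/mL kanamycin versus none on LB agar overnight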
CONDITIONS_USED: 30 °C
Please mark condition met if the recorded self-splicing fitness (ln) is equal to or greater than -3, and condition not met if it falls below.

{"columns": ["INPUT_SEQUENCE", "CATEGORY_LABEL"],
 "data": [
  ["GCACAGCAAUAUUACGGGAG", "condition met"],
  ["UUCUAGCAAUAUUACGUUGC", "condition not met"],
  ["UAAGAGCAAUAUUACGAUGU", "condition not met"],
  ["GGAGAGCAAUAUUACGGAGA", "condition met"],
  ["UAUAAGCAAUAUUACGGACC", "condition met"],
  ["AUCGAGCAAUAUUACGGCGU", "condition met"],
  ["CGGCAGCAAUAUUACGCUGU", "condition not met"],
  ["GCGGAGCAAUAUUACGGUUA", "condition met"],
  ["GACUAGCAAUAUUACGCGCA", "condition met"],
  ["AUGAAGCAAUAUUACGAGGA", "condition met"],
  ["AUAUAGCAAUAUUACGAUCG", "condition met"],
  ["CAAGAGCAAUAUUACGAGAC", "condition met"]
]}

* * *

EXPERIMENT_NOTES: self-splicing fitness, log relative to wild type (ln ratio); higher = more splicing; Tetrahymena group I intron in knt gene, E. coli kanamycin selection, DiMSum; sequences stand for … in CUCUCU…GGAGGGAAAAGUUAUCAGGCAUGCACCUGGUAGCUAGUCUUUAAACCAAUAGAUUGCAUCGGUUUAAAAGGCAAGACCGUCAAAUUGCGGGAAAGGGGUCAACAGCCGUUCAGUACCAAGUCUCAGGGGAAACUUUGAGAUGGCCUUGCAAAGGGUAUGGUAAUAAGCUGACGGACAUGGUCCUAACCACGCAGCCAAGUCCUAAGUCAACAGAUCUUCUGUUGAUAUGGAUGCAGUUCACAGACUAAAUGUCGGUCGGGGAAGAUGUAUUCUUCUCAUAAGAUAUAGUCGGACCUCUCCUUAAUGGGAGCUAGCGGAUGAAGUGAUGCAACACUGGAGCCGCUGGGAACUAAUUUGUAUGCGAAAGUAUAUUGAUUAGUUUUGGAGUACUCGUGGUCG
CONDITIONS_USED: 37 °C
Please mark condition met if the recorded self-splicing fitness (ln) is equal to or greater than -2, and condition not met if it falls below.

{"columns": ["INPUT_SEQUENCE", "CATEGORY_LABEL"],
 "data": [
  ["GUGCAGCAAUAUUACGCAGU", "condition not met"],
  ["UGUCAGCAAUAUUACGAGGC", "condition not met"],
  ["GAUUAGCAAUAUUACGAUCU", "condition not met"],
  ["CCACAGCAAUAUUACGCCGC", "condition not met"],
  ["UCCCAGCAAUAUUACGUUUA", "condition met"],
  ["ACGUAGCAAUAUUACGUAAC", "condition not met"],
  ["GCGGAGCAAUAUUACGACUU", "condition met"],
  ["GAAAAGCAAUAUUACGAAUU", "condition met"],
  ["CACAAGCAAUAUUACGGCCA", "condition met"],
  ["GUUGAGCAAUAUUACGAGUC", "condition met"],
  ["UUAAAGCAAUAUUACGGGGA", "condition met"],
  ["CAUCAGCAAUAUUACGCCCA", "condition not met"],
  ["GUCCAGCAAUAUUACGUGGA", "condition met"],
  ["CGAGAGCAAUAUUACGAUUU", "condition not met"],
  ["GUUCAGCAAUAUUACGAGCU", "condition not met"],
  ["AGCUAGCAAUAUUACGAUGC", "condition not met"]
]}

* * *

Listing of entries alongside the reported self-splicing fitness (ln).
EXPERIMENT_NOTES: self-splicing fitness, log relative to wild type (ln ratio); higher = more splicing; Tetrahymena group I intron in knt gene, E. coli kanamycin selection, DiMSum; sequences stand for … in CUCUCU…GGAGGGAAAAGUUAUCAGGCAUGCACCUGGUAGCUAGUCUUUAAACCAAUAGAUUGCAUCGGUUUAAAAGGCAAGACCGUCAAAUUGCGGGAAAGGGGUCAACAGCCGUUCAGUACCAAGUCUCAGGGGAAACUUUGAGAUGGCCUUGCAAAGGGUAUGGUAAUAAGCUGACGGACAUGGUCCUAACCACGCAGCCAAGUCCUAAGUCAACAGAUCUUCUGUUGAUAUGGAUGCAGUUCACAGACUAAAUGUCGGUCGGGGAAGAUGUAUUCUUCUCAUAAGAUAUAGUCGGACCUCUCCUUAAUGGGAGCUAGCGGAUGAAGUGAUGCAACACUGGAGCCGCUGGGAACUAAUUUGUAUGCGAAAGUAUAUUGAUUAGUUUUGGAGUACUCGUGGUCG
CONDITIONS_USED: 37 °C

{"columns": ["INPUT_SEQUENCE", "self-splicing fitness (ln)"],
 "data": [
  ["CAGGAGCAAUAUUACGUUCC", -2.04],
  ["UCCCAGCAAUAUUACGAGCC", -1.96],
  ["AGAUAGCAAUAUUACGGUCA", 0.317],
  ["AUUAAGCAAUAUUACGCAGU", -2.48],
  ["ACUGAGCAAUAUUACGCACC", -2.15],
  ["UGGCAGCAAUAUUACGAAAU", -0.617],
  ["ACUGAGCAAUAUUACGGUGA", -3.65],
  ["CCUGAGCAAUAUUACGUCAG", -2.19],
  ["CUACAGCAAUAUUACGCCGG", -1.26],
  ["CCGUAGCAAUAUUACGGUAU", -2.85],
  ["CUGUAGCAAUAUUACGCACA", -1.19],
  ["AUUCAGCAAUAUUACGUCAC", -2.19],
  ["CAAAAGCAAUAUUACGAGAU", -2.21],
  ["GCCGAGCAAUAUUACGCGUG", -1.32],
  ["AGCUAGCAAUAUUACGAGAU", -1.22],
  ["CUUUAGCAAUAUUACGUGUC", -1.55],
  ["CAUGAGCAAUAUUACGAUUU", -2.15],
  ["ACACAGCAAUAUUACGGAUA", -2.54],
  ["AAGUAGCAAUAUUACGUCCA", -0.521],
  ["GGUAAGCAAUAUUACGAAAC", -0.179],
  ["GACAAGCAAUAUUACGAAGC", -2.15],
  ["CCUGAGCAAUAUUACGUGAU", -3.54],
  ["UAUCAGCAAUAUUACGCGCU", -1.76],
  ["GCUCAGCAAUAUUACGGAAA", -0.337],
  ["UCCAAGCAAUAUUACGACAG", -1.47],
  ["CGUAAGCAAUAUUACGGGGU", -3.36],
  ["GUACAGCAAUAUUACGAUAC", -2.52],
  ["CAUCAGCAAUAUUACGAACC", -0.525],
  ["GAUUAGCAAUAUUACGUGGG", -2.47],
  ["GUCCAGCAAUAUUACGGCCU", -1.14],
  ["AGUGAGCAAUAUUACGCGUG", -2.34],
  ["UGAUAGCAAUAUUACGCGUG", -0.0417],
  ["GGAAAGCAAUAUUACGUGCU", -0.467],
  ["UAACAGCAAUAUUACGCCGA", -0.415],
  ["GCGCAGCAAUAUUACGGGAC", 0.393],
  ["AUCUAGCAAUAUUACGCUUC", -2.03],
  ["UCCUAGCAAUAUUACGUUAA", -2.32],
  ["CUGAAGCAAUAUUACGUGUU", -2.13],
  ["CGCGAGCAAUAUUACGUAAC", -1.76],
  ["UCACAGCAAUAUUACGAUAU", -2.67],
  ["UUUAAGCAAUAUUACGGUGU", -2.3],
  ["CAUGAGCAAUAUUACGCCGG", -2.14],
  ["CCGCAGCAAUAUUACGCAAC", -3.07],
  ["UAAUAGCAAUAUUACGCGUU", -2.66],
  ["GUCAAGCAAUAUUACGGGUU", -2.31],
  ["GCCUAGCAAUAUUACGAGCA", -0.418],
  ["GUCCAGCAAUAUUACGGUAU", 0.0993],
  ["AUAGAGCAAUAUUACGCCAA", -0.839],
  ["CCCGAGCAAUAUUACGCCGG", -2.23],
  ["CACAAGCAAUAUUACGACCG", 0.582],
  ["CUGCAGCAAUAUUACGGAAA", -1.56],
  ["CGUUAGCAAUAUUACGAAUC", -2.42],
  ["AUUGAGCAAUAUUACGAUUA", -2.62],
  ["UGUCAGCAAUAUUACGUGCC", -0.182],
  ["UCCGAGCAAUAUUACGGAAU", -1.77],
  ["AUACAGCAAUAUUACGACGU", 0.174],
  ["CCGUAGCAAUAUUACGUGCU", -1.98],
  ["CAGCAGCAAUAUUACGCAUG", -2.42],
  ["CCACAGCAAUAUUACGAGCA", -2.89],
  ["GGCAAGCAAUAUUACGUCGC", -1.38],
  ["GAGAAGCAAUAUUACGUCAG", -1.35]
]}
